src = paper PMC8547165

# test-details: QAC levels in human blood
# Format: in vivo
# stated-conditions: human serum, during COVID-19 (2020), n = 111
observable: log10 Maximum concentration (log10 of the value in ng/mL)
Remember, log10 of Maximum concentration, in ng/mL.

Reference set (6 entries):
>>> print(df.to_string())
                         compound_structure  numeric_readout
0            CCCCCCCCCC[N+](C)(C)CCCCCCCCCC            -0.21
1    CCCCCCCCCCCCCC[N+](C)(C)CCCCCCCCCCCCCC            -0.10
2                   CCCCCCCCCCCC[N+](C)(C)C             0.84
3  CCCCCCCCCCCCCCCC[N+](C)(C)CCCCCCCCCCCCCCCC            -0.24
4                 CCCCCCCCCCCCCC[N+](C)(C)C             0.57
5  CCCCCCCCCCCCCCCCCC[N+](C)(C)CCCCCCCCCCCCCCCCCC             0.73

Just so you know, measured log10 Maximum concentration for CCCCCCCC[N+](C)(C)CCCCCCCC came out at -0.66

Just so you know, measured log10 Maximum concentration for CCCCCCCCCCCCCCCCCC[N+](C)(C)C came out at 0.56

Just so you know, measured log10 Maximum concentration for CCCCCCCCCCCCCCCC[N+](C)(C)C came out at 0.55

Just so you know, measured log10 Maximum concentration for CCCCCCCCCCCCCCCCCC[N+](C)(C)Cc1ccccc1 came out at 0.15

Just so you know, measured log10 Maximum concentration for CCCCCCCCCCCCCCCC[N+](C)(C)Cc1ccccc1 came out at 1.21
